Molecular target: KRAS G12V (Homo sapiens, UniProt P01116, G12V)
Construct: Human His-tagged KRAS4B (1-169) G12D, G12V and G12C were custom synthesized; 6His (pET-28a(+)-TEV vector) (N)
Sequence (P01116 1-169 isoform P01116-2 G12V): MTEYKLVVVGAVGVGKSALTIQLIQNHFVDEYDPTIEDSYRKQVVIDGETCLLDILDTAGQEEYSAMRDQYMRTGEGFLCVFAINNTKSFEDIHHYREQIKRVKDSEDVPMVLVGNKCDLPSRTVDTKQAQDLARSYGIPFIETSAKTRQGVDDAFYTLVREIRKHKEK
Experiment: Isothermal titration calorimetry, KRAS G12V
Conditions: ITC, KRAS G12V-NE
Method: All isothermal titration calorimetry (ITC) experiments were carried out at 25°C on a MicroCal PEAQ ITC Automated (Malvern). […] The final ITC buffer in the syringe and the cell was 25 mmol/L Tris HCl (pH 8.0), 100 mmol/L NaCl, 0.1 mmol/L DTT, 5% glycerol, 1% NP40, 5 mmol/L MgCl2, and 5% DMSO. […] Data were analyzed using a one site binding model with the Malvern analysis software. […]

molecule	test.target	Kd (nM)
COC(=O)C1C2C3(C)C(=O)C=CC2(OC3=O)C2CCC3(CBr)CC12CC3=O (stereo not shown)	KRAS G12V (Homo sapiens, UniProt P01116, G12V)	392
